The origin of these recorded values is PubChem BioAssay (NCI).

Listed next: entries and their corresponding TGI.
test system: ACHN renal; assay: NCI tumour cell line growth inhibition, 48 h

Compound	TGI
COC1=CC(=O)c2c(cc(COP(N)(=O)N(CCBr)CCBr)n2C)C1=O (stereo not given)	0.0219 µM
Cc1cc(N(CCC#N)CCC#N)ccc1/C=N/NC(=O)c1ccccc1	> 100 µM
CCn1c2ccccc2c2cc(N=Nc3ccc(C#N)cc3)ccc21	> 100 µM
O=S(O)CCCCCSSSCCCCCS(=O)O	> 100 µM

# compound CCOC(CNc1nn2c(C)nnc2s1)OCC ; its TGI = > 100 µM

###

system: SN12C renal; test: NCI tumour cell line growth inhibition, 48 h
Readout Kind: TGI

Short answer on SN12C renal for CC1OC(Oc2c(-c3cc(O)c(O)c(O)c3)oc3cc(O)cc(O)c3c2=O)C(O)C(O)C1O (stereo unspecified) , TGI: > 100 µM

Short answer on SN12C renal for c1ccc2c(c1)Oc1cccc3cccc-2c13 , TGI: > 100 µM

Short answer on SN12C renal for CC(=O)OC1C[C@@H](C)C2(CC(c3ccoc3)OC2=O)C2CCC(O)C3(CO3)C12CO (stereo partly specified) , TGI: > 100 µM

Short answer on SN12C renal for NC(Cc1ccccc1)P(=O)(O)O (stereo unspecified) , TGI: > 100 µM

Short answer on SN12C renal for Nc1ccccc1Nc1ccccc1C(=O)[O-].Nc1ccccc1Nc1ccccc1C(=O)[O-].[Ni+2] , TGI: > 100 µM

###

tested on: SNB-75 CNS; assay: NCI tumour cell line growth inhibition, 48 h
Readout Kind: TGI

# compound O=C(NC(Cc1ccc(I)cc1)C(=O)O)c1cccc(Br)c1 (stereo not drawn) ; its TGI = > 100 µM

# compound NNC(=O)c1ccccc1Nc1nc(-c2cccs2)nc2ccc(Br)cc12 ; its TGI = > 100 µM

# compound C=C1C(O)C2C(=C(CCC3CC3)C13CC3)C(=O)C(C)(C)C2O (stereo not drawn) ; its TGI = > 100 µM

###

tested on: NCI-H522 lung; assay: NCI tumour cell line growth inhibition, 48 h
Readout Kind: TGI (µM)
Quick reminder: number only, in µM, skip the unit.

Recorded results for 3 compounds are shown here.
Compound	TGI [µM]
COc1ccc(C(=O)c2sc3nc4c(cc3c2N)CCCC4)cc1OC	5.53
Cc1nc2cc(-c3nn(C(C)C)c4ncnc(N)c34)ccc2o1	0.787
O=S(O)CCCCCSSSCCCCCS(=O)O	85.1

Next compound, please.
# compound CN(C)CC1CC/C(=C\c2ccc(Cl)cc2)C1=O (configuration not stated) ; its TGI = 6.94

###

system: U251 CNS; assay: NCI tumour cell line growth inhibition, 48 h; in the data active means GI50 below about 0.43 µM; inactive means the rest
Tick one outcome: active, inactive

Request: # fetch the recorded call for S=C(S)N1CCCCC1 here
Result: inactive

###

system: OVCAR-8 ovarian; assay: NCI tumour cell line growth inhibition, 48 h
Readout Kind: TGI

Recorded results for 8 molecules are shown here.
Molecule	TGI
CN(C)CCONC(=O)C12CC3CC(CC(C3)C1)C2	> 100 µM
O=c1c(=O)c2cscc2c1=O	16.4 µM
COc1cc(/C=C2\C(=O)Nc3ccccc32)cc(OC)c1O	29.7 µM
C=C=C(Sc1ccccc1)C(C)(C)O	> 100 µM
O=c1ccccc(-c2ccc(Br)cc2)c1O	> 100 µM
COc1ccc(/C=C/C2C(C#N)=C(N)OC3=C2C(=O)CCC3)cc1 (centres undefined)	> 100 µM
CN1CCCC2[C@@H]3CCC4=C(O)C(=O)CC[C@]4(C)C3CC[C@@]21C (some centres undefined)	> 100 µM
N#CC(C#N)=Cc1c[nH]c(=O)[nH]c1=O	> 100 µM

Next molecule, please.
# molecule Cn1c(-c2ccccc2)cc(-c2cccs2)c1-c1ccsc1 ; its TGI = > 100 µM
